MEASUREMENT TARGET: T1, Recombinant microbial transglutaminase (mTG) (Streptoverticillium mobaraense, UniProt P81453 77-407)
T1 sequence (looked up): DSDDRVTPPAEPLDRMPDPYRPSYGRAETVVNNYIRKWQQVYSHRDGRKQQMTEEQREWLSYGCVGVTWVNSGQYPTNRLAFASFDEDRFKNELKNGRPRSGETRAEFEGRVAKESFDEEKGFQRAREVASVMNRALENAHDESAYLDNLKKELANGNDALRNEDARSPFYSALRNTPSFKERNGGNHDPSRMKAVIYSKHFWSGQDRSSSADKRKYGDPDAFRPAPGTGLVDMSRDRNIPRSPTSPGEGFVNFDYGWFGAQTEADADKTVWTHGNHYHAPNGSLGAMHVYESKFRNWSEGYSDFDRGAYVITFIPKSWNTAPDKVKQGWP
EXPERIMENTAL DETAILS: cell-based or functional assay
Where no end group is shown, it is not given here.
The entries below are paired with their reported Kmapp.

Would you please look over these solved cases?
| BINDER | Kmapp |
| --- | --- |
| WPDVYSQH (also: biotin tag, position not given here) [bWH8Q7] | 11.4 µM |
| LLTLPSVQEQN (also: biotin tag, position not given here) [bLN11Q8-10] | 172 µM |

Now look at this entry.
The reported value for HDLMWPDVYSQH (also: biotin tag, position not given here) [bHH12Q11] in terms of Kmapp is 3.08 µM

src = patent US20160361434A1
